Origin of the recorded values: paper PMC3904508

# Measured Target: human CFTR (Homo sapiens, UniProt P13569)
# Sequence (P13569 whole entry): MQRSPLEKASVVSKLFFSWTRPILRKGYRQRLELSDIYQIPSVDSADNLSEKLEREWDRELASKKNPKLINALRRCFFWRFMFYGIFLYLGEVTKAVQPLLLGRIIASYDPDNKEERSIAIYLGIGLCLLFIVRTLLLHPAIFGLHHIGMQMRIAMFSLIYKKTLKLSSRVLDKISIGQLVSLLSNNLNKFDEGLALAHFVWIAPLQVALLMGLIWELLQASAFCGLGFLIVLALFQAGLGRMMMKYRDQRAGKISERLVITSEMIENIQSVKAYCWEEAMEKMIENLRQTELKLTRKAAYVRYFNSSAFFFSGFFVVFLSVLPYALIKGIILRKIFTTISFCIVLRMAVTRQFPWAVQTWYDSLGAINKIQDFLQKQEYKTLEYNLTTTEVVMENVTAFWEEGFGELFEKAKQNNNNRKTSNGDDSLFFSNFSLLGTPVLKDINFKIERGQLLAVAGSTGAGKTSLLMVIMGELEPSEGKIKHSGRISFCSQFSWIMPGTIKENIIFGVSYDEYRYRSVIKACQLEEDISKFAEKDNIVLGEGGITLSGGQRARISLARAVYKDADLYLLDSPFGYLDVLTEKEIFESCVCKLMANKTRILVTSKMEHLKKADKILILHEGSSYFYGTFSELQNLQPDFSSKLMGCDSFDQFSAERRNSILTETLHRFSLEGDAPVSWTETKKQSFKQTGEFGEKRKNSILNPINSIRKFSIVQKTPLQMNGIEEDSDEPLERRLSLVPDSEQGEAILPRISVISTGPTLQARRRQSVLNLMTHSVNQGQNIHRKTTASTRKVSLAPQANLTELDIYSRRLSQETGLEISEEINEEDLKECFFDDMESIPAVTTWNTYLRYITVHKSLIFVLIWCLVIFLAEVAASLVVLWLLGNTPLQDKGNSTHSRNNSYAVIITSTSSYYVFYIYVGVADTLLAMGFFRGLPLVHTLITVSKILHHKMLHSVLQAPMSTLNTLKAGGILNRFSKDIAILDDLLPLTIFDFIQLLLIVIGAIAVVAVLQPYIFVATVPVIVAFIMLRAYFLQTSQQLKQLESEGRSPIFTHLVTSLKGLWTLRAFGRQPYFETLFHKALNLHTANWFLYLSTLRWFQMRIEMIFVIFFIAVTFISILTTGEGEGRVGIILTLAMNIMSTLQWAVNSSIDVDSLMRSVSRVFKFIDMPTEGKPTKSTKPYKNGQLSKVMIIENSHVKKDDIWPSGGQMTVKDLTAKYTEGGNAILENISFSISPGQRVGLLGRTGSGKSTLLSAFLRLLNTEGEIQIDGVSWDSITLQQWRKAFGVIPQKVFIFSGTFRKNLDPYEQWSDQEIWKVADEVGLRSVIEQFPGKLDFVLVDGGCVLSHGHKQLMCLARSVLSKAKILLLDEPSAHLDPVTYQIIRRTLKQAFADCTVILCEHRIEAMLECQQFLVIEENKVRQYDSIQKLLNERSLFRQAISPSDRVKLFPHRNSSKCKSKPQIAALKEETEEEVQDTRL
# Method: Conventional plate reader YFP fluorescence iodide influx assay, CFTR
# Assay type: cell-based
Measurement Label: pIC50
Quick note: pIC50 means taking -log10 of the concentration in moles per liter.

Asked: What measured pIC50 goes with C=C[C@@]1(C)CC(=O)[C@]2(O)[C@@]3(C)[C@@H](O)CCC(C)(C)[C@@H]3[C@H](O)[C@H](OC(C)=O)[C@@]2(C)O1 [forskolin] ?
Given back: 5.54

----------
# Measured Target: human CFTR (Homo sapiens)
# Method: Single-shot microfluidics YFP fluorescence iodide influx assay, CFTR
# Type: cell-based
Measurement Label: IC50 (µM)
Please give a number only; it is taken to be in µM.

Asked: What is its IC50 for human CFTR (Homo sapiens)? Entry: C=C[C@@]1(C)CC(=O)[C@]2(O)[C@@]3(C)[C@@H](O)CCC(C)(C)[C@@H]3[C@H](O)[C@H](OC(C)=O)[C@@]2(C)O1 [forskolin]
Given back: 3.2
